Molecular target: Serine/threonine-protein kinase Sgk2 (Homo sapiens) (UniProt Q9HBY8)
Sequence (whole entry): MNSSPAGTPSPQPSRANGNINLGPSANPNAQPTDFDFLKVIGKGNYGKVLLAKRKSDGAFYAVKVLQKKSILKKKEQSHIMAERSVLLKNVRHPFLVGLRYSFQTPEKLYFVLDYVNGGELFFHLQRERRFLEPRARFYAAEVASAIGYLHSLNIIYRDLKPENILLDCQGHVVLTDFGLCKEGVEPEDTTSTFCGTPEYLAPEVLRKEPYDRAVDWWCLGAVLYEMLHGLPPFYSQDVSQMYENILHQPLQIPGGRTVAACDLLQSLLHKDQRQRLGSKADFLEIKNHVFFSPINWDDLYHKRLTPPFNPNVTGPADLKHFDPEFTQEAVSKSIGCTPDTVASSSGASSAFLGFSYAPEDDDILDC
Conditions: at 10 µM
Measure name: residual activity (%)

1. CN(C)c1ccc(/C=C2\C(=O)Nc3ccccc32)cc1 ... 63
2. O=c1c2ccccc2[nH]c(=S)n1CCN1CCC(=C(c2ccc(F)cc2)c2ccc(F)cc2)CC1 ... 88
3. O=c1cc(-c2cccc3c2Sc2ccccc2S3)oc(N2CCOCC2)c1 ... 72
4. Oc1n[nH]c2nnc(-c3c(-c4ccccc4)nn4ccccc34)cc12 ... 80
5. O=C1Nc2ccc(Br)cc2/C1=C\c1cc2c([nH]1)CCCC2 ... 109
